Test system: Fibroblast
Assay: Multiplex assay against human fibroblast
Assay type: toxicity, cell-based
Conditions: 24 h, 10 µM, compound concentration 10 uM, replicate 2
Recorded endpoint: Population Mitotic Cells (%)
Numbers only; they are read as %.

- NC(=O)c1ccc2nc(-c3ccc(C4(N)CCC4)cc3)c(-c3ccccc3)n2n1: 71
- CCCc1cc(C)[nH]c(=O)c1CNC(=O)c1cc(-c2ccc(N3CCN(C(C)C)CC3)nc2)cc2c1cnn2C(C)C: 8
- CC[C@H](Nc1ncnc2[nH]cnc12)c1nc2cccc(F)c2c(=O)n1-c1ccccc1: 100

Ask: Reported Population Mitotic Cells (%), compound CN1C(=O)[C@@H](NC(=O)c2cc3ccccc3[nH]2)N=C(c2ccccc2)c2ccccc21 [DEVAZEPIDE] : ____
Reply: 7
